Can you tell me IC50 for the items I'm about to list?
- target desc: human DGKζ (Homo sapiens, UniProt Q13574)
- Construct: TVMV protease cleavage site (C); Hexa-His (C); made in house; host or cells: Sf9 insect cells (baculovirus, Bac-to-Bac)
- Sequence (Q13574 with tags, fused parts or gaps isoform Q13574-4): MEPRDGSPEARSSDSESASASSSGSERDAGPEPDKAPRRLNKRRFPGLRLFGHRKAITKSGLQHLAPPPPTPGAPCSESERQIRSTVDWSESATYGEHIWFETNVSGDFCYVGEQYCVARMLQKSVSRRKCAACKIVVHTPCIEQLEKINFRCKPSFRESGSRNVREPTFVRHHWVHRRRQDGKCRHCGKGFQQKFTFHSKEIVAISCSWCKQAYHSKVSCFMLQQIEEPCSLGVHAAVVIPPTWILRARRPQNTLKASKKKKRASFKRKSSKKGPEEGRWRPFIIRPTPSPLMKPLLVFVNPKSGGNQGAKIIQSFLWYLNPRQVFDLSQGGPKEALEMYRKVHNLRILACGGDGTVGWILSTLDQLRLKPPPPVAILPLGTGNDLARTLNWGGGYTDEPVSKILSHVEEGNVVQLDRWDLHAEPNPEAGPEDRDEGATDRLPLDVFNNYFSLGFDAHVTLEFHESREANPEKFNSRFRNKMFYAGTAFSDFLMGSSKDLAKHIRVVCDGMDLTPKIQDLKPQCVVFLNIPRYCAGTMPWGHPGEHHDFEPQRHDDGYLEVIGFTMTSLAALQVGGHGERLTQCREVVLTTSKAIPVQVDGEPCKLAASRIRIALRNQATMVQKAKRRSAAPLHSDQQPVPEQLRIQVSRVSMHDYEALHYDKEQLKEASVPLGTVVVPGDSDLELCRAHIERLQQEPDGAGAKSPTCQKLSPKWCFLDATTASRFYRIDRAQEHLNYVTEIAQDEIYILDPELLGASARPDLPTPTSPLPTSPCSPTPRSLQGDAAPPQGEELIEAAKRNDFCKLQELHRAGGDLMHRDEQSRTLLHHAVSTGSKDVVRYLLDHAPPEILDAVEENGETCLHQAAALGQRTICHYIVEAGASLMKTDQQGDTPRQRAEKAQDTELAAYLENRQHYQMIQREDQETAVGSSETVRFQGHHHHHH
- procedure details: DGKζ LIPGLO assay (extruded liposome substrate), in vitro DGK inhibition
- Type: biochemical
- applied conditions: liposome (LIPGLO) assay; read-out: DGKz LIPGLO IC50

Per the reported human DGKζ (Homo sapiens, UniProt Q13574) data, CC[C@H]1CN(C(c2ccc(F)cc2)c2ccc(C#N)cc2)[C@H](C)CN1c1cc(=O)n(C)c2ccc(C#N)nc12 (stereo partly drawn) [Example 1124] has IC50 of 3.1 µM

Per the reported human DGKζ (Homo sapiens, UniProt Q13574) data, COCC(F)(F)C(c1ccc(F)cc1)N1C[C@H](C)N(c2cc(=O)n(C)c3ccc(C#N)nc23)C[C@H]1C (single isomer, unassigned) [Example 1313] has IC50 of 5.3 µM

Per the reported human DGKζ (Homo sapiens, UniProt Q13574) data, CC(c1ccc(C(F)(F)F)cc1F)N1C[C@H](C)N(c2cc(=O)n(C)c3ccc(C#N)nc23)C[C@H]1C (single isomer, unassigned) [Example 412] has IC50 of 13 µM

Per the reported human DGKζ (Homo sapiens, UniProt Q13574) data, Cc1cccc(C(c2ccc(F)cc2)N2C[C@H](C)N(c3cc(=O)n(C)c4ccc(C#N)nc34)C[C@H]2C)c1 (single isomer, unassigned) [Example 224] has IC50 of 0.057 µM

Per the reported human DGKζ (Homo sapiens, UniProt Q13574) data, CC(c1ccc(OC(F)F)cn1)N1C[C@H](C)N(c2cc(=O)n(C)c3ccc(C#N)nc23)C[C@H]1C (single isomer, unassigned) [Example 1224] has IC50 of 1.4 µM

Per the reported human DGKζ (Homo sapiens, UniProt Q13574) data, CC(c1ccc(OC(F)(F)F)cc1)N1C[C@H](C)N(c2cc(=O)n(C)c3ccc(C#N)nc23)C[C@H]1CN1CCN(C)CC1 (stereo partly drawn) [Example 1418] has IC50 of 62 µM

----------
- target desc: human DGKα (Homo sapiens, UniProt P23743)
- Construct: TVMV protease cleavage site (C); Hexa-His (C); made in house; host or cells: Sf9 insect cells (baculovirus, Bac-to-Bac)
- Sequence (P23743 with tags, fused parts or gaps): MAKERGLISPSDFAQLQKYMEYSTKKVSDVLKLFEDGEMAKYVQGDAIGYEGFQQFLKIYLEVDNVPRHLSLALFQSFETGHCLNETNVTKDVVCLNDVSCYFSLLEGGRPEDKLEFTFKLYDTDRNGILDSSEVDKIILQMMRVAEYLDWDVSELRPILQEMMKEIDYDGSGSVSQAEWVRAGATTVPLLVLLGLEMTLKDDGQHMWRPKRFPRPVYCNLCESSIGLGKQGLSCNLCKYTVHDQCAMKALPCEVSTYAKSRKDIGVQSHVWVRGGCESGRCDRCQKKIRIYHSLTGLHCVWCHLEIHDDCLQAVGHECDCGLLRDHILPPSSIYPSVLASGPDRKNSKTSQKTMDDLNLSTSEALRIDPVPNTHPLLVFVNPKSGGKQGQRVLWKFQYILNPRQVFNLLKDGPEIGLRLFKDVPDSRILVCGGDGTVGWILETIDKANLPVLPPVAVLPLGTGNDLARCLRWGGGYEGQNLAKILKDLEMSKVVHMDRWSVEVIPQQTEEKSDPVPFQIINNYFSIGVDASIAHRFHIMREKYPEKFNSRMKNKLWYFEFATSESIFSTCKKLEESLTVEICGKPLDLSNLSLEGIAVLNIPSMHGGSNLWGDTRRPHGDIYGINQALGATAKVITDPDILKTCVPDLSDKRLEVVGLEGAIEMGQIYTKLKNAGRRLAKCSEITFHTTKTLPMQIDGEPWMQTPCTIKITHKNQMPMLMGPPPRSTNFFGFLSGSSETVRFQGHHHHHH
- procedure details: DGKα LIPGLO assay (extruded liposome substrate), in vitro DGK inhibition
- Type: biochemical
- applied conditions: DGKα liposome (LIPGLO) assay; read-out: DGKa LIPGLO IC50
Can you tell me IC50 for the items I'm about to list?
Give just the number in nM; leave the unit off.

The compound listed as `C[C@@H]1CN(c2c(C#N)c(=O)n(C)c3ccc(C#N)nc23)CCN1Cc1cccc(C#N)n1` has a reported IC50 of 5200

The compound listed as C[C@@H]1CN(c2c(C#N)c(=O)n(C)c3ccc(C#N)nc23)CCN1C(c1ccc(F)cc1)c1ccccc1F (stereo partly shown) [Example 883] has a reported IC50 of 1500

The compound listed as Cc1ccc(C(c2ccc(F)cc2)N2C[C@H](C)N(c3c(C#N)c(=O)n(C)c4ccc(C#N)nc34)C[C@H]2C)cc1 (stereo partly shown) [Example 818] has a reported IC50 of 58000

The compound listed as CCc1ccc(C(c2ccc(F)cc2)N2CCN(c3c(C#N)c(=O)n(C)c4ccc(C#N)nc34)C[C@H]2C)cc1 (stereo partly shown) [Example 885] has a reported IC50 of 3000

The compound listed as C[C@@H]1CN(c2c(C#N)c(=O)n(C)c3ccc(C#N)nc23)CCN1C(c1ccc(F)cc1)c1cccc(F)c1 (stereo partly shown) [Example 881] has a reported IC50 of 5300

The compound listed as CC(c1ccc(F)c(F)c1)N1CCN(c2c(C#N)c(=O)n(C)c3ccc(C#N)nc23)C[C@H]1C (stereo partly shown) has a reported IC50 of 780

The compound listed as C[C@@H]1CN(c2cc(=O)n(C)c3ccc(C#N)nc23)[C@@H](C)CN1C(c1ccc(F)cc1)c1nnc(C2CC2)s1 (single isomer, unassigned) [Example 775] has a reported IC50 of 5800

The compound listed as CC(c1ccc(C#N)cc1)N1CCN(c2c(C#N)c(=O)n(C)c3ccc(C#N)nc23)C[C@H]1C (stereo partly shown) [Example 954] has a reported IC50 of 130

The compound listed as C[C@@H]1CN(c2cc(=O)n(C)c3ccc(C#N)nc23)[C@@H](C)CN1C(c1ccc(F)cc1)c1csc(C2CC2)n1 (single isomer, unassigned) [Example 724] has a reported IC50 of 84

The compound listed as C[C@@H]1CN(c2c(C#N)c(=O)n(C)c3ccc(C#N)nc23)[C@@H](C)CN1C(c1ccc(F)cc1)c1nc(C2CC2)no1 (single isomer, unassigned) [Example 860] has a reported IC50 of 410

The compound listed as C[C@@H]1CN(c2c(C#N)c(=O)n(C)c3ccc(C#N)nc23)[C@@H](C)CN1C(c1ccc(F)cc1)c1ccccn1 (single isomer, unassigned) [Example 842] has a reported IC50 of 1200

The compound listed as Cc1ccc(C(c2ccc(Cl)cn2)N2CCN(c3c(C#N)c(=O)n(C)c4ccc(C#N)nc34)C[C@H]2C)cc1 (single isomer, unassigned) [Example 936] has a reported IC50 of 1000

The compound listed as C[C@@H]1CN(c2c(C#N)c(=O)n(C)c3ccc(C#N)nc23)CCN1C(c1ccc(Cl)cc1)c1ccc(F)cn1 (single isomer, unassigned) [Example 900] has a reported IC50 of 2600

The compound listed as CC(c1ccc(F)cc1)N1CCN(c2c(C#N)c(=O)n(C)c3ccc(C#N)nc23)C[C@H]1C (single isomer, unassigned) [Example 957] has a reported IC50 of 260

The compound listed as `C[C@@H]1CN(c2c(C#N)c(=O)n(C)c3ccc(C#N)nc23)CCN1Cc1cccc(F)c1` has a reported IC50 of 870

The compound listed as `C[C@@H]1CN(c2c(C#N)c(=O)n(C)c3ccc(C#N)nc23)CCN1Cc1ccc(F)c(F)c1` has a reported IC50 of 2900

The compound listed as COC(=O)c1ccc(C(C)N2CCN(c3c(C#N)c(=O)n(C)c4ccc(C#N)nc34)C[C@H]2C)cc1 (stereo partly shown) [Example 980] has a reported IC50 of 5700

The compound listed as C[C@@H]1CN(c2c(C#N)c(=O)n(C)c3ccc(C#N)nc23)[C@@H](C)CN1C(c1ccc(F)cc1)c1cscn1 (single isomer, unassigned) [Example 856] has a reported IC50 of 330

The compound listed as C[C@@H]1CN(c2cc(=O)n(C)c3ccc(C#N)nc23)[C@@H](C)CN1C(c1ccc(F)cc1)c1cnc(C2CC2)s1 (single isomer, unassigned) [Example 728] has a reported IC50 of 63

The compound listed as C[C@@H]1CN(c2cc(=O)n(C)c3ccc(C#N)nc23)[C@@H](C)CN1C(c1ccc(F)cc1)c1nc(C2CC2)no1 (single isomer, unassigned) [Example 735] has a reported IC50 of 240

The compound listed as C[C@@H]1CN(c2c(C#N)c(=O)n(C)c3ccc(C#N)nc23)[C@@H](C)CN1C(c1ccccc1)c1ccc(F)cc1 (stereo partly shown) [Example 808] has a reported IC50 of 4200

The compound listed as CC(c1ccc(F)cc1)N1CCN(c2c(C#N)c(=O)n(C)c3ccc(C#N)nc23)C[C@H]1C (single isomer, unassigned) [Example 959] has a reported IC50 of 2400

The compound listed as C[C@@H]1CN(c2c(C#N)c(=O)n(C)c3ccc(C#N)nc23)CCN1C(c1cccc(Cl)c1)c1ccc(F)cn1 (stereo partly shown) [Example 927] has a reported IC50 of 2600

----------
- target desc: human DGKζ (Homo sapiens, UniProt Q13574)
- Construct: TVMV protease cleavage site (C); Hexa-His (C); made in house; host or cells: Sf9 insect cells (baculovirus, Bac-to-Bac)
- procedure details: DGKζ LIPGLO assay (extruded liposome substrate), in vitro DGK inhibition
- Format: biochemical
- applied conditions: liposome (LIPGLO) assay; read-out: DGKz LIPGLO IC50
assay readout: pIC50
Remember, pIC50 is on a log scale: it is -log10 of the molar concentration.

The compound listed as C[C@@H]1CN(c2cc(=O)n(C)c3ccc(C#N)nc23)[C@@H](C)CN1C(c1ccc(F)c(F)c1)c1ccccn1 (single isomer, unassigned) [Example 375] has a reported pIC50 of 5.57

The compound listed as CC[C@H]1CN(C(c2ccc(F)cc2)c2cocn2)[C@H](CC)CN1c1cc(=O)n(C)c2ccc(C#N)nc12 (single isomer, unassigned) [Example 1068] has a reported pIC50 of 7.04

The compound listed as C[C@@H]1CN(c2cc(=O)n(C)c3ccc(C#N)nc23)[C@@H](C)CN1C(c1ccc(F)cc1)c1ccc(C(F)(F)F)cn1 (single isomer, unassigned) [Example 680] has a reported pIC50 of 5.60

The compound listed as Cn1c(=O)cc(N2CCN(C(c3ccc(F)cc3)c3ccc(F)cc3)CC2CO)c2nc(C#N)ccc21 (racemic) [Example 146] has a reported pIC50 of 4.85

The compound listed as CC[C@H]1CN(C(c2ccc(Cl)cc2)c2ccc(Cl)cc2)[C@H](CC)CN1c1cc(=O)n(C)c2ccc(C#N)nc12 [Example 1032] has a reported pIC50 of 6.55

The compound listed as C[C@@H]1CN(c2cc(=O)n(C)c3ccc(C#N)nc23)[C@@H](C)CN1Cc1ccc(OC(F)(F)F)cc1F (single isomer, unassigned) [Example 624] has a reported pIC50 of 4.62

The compound listed as COc1ncccc1C(c1ccc(F)cc1)N1C[C@H](C)N(c2cc(=O)n(C)c3ccc(C#N)nc23)C[C@H]1C (single isomer, unassigned) [Example 209] has a reported pIC50 of 6.49

The compound listed as CC(c1ccc2c(c1)OC(F)(F)O2)N1C[C@H](C)N(c2cc(=O)n(C)c3ccc(C#N)nc23)C[C@H]1C (single isomer, unassigned) [Example 655] has a reported pIC50 of 5.89

The compound listed as C[C@@H]1CN(c2cc(=O)n(C)c3ccc(C#N)nc23)[C@@H](C)CN1Cc1cc(F)cc(F)c1 [Example 290] has a reported pIC50 of 5.46

The compound listed as CC[C@@H]1CN(c2cc(=O)n(C)c3ccc(C#N)nc23)[C@@H](C)CN1C(c1ccc(F)cc1)c1ccon1 (single isomer, unassigned) [Example 1115] has a reported pIC50 of 5.85

The compound listed as C[C@@H]1CN(c2cc(=O)n(C)c3ccc(C#N)nc23)[C@@H](C)CN1Cc1ccc(OC(F)F)cc1F [Example 590] has a reported pIC50 of 5.29

The compound listed as C[C@@H]1CN(c2cc(=O)n(C)c3ccc(C#N)nc23)[C@@H](C)CN1C(c1ccc(F)cn1)c1cccc2c1OC(C)(C)C2 (single isomer, unassigned) [Example 467] has a reported pIC50 of 6.35
